- TARGET: T1, alpha-s1 casein from Bos taurus
- T1 chain: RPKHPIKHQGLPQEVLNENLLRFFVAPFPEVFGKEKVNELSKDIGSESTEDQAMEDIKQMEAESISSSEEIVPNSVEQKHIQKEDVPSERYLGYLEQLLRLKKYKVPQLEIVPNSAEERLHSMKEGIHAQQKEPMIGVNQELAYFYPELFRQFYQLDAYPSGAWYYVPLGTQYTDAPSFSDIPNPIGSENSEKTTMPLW
PARAMETER: αs1-I CN, 24 hours, 11° C. (Volume)
Your answer should be a plain number; it is taken to be in Volume.

// query Could you share which αs1-I CN, 24 hours, 11° C. value was measured for camel chymosin variant #137 (F223D) (protein) GKVAREPLTSYLDSQYFGKIYIGTPPQEFTVVFDTGSSDLWVPSIYCKSNVCKNHHRFDPRKSSTFRNLGKPLSIHYGTGSMEGFLGYDTVTVSNIVDPNQTVGLSTEQPGEVFTYSEFDGILGLAYPSLASEYSVPVFDNMMDRHLVARDLFSVYMDRNGQGSMLTLGAIDPSYYTGSLHWVPVTLQQYWQFTVDSVTINGVAVACVGGCQAILDTGTSVLDGPSSDILKIQMAIGATENRYGEFDVNCGNLRSMPTVVFEINGRDYPLSPSAYTSKDQGFCTSGFQGDNNSELWILGDVFIREYYSVFDRANNRVGLAKAI ?
// result 2.55e+07

// query # repeat for camel chymosin variant #164 (L295Y) (protein) GKVAREPLTSYLDSQYFGKIYIGTPPQEFTVVFDTGSSDLWVPSIYCKSNVCKNHHRFDPRKSSTFRNLGKPLSIHYGTGSMEGFLGYDTVTVSNIVDPNQTVGLSTEQPGEVFTYSEFDGILGLAYPSLASEYSVPVFDNMMDRHLVARDLFSVYMDRNGQGSMLTLGAIDPSYYTGSLHWVPVTLQQYWQFTVDSVTINGVAVACVGGCQAILDTGTSVLFGPSSDILKIQMAIGATENRYGEFDVNCGNLRSMPTVVFEINGRDYPLSPSAYTSKDQGFCTSGFQGDNNSEYWILGDVFIREYYSVFDRANNRVGLAKAI
// result 2.66e+07
